Listed next: entries and their corresponding melting point.

Before answering, review these 2 worked examples.
>  <smilesString>
CCCCNc1ccc(-c2cc3ccccc3o2)cc1

>  <melting point>
113 to 115 °C

$$$$
>  <smilesString>
Cn1nnnc1SCCCn1cc(C2=C(c3cn(C)c4ccccc34)C(=O)NC2=O)c2ccccc21

>  <melting point>
95 to 97 °C

$$$$

Proceed to the following item.
I am curious: what melting point value has been reported for `Cn1cc2c(n1)CCCc1c-2cnn1C` ?
176 to 178 °C

* * *

Listed next: entries and their corresponding melting point.

I am curious: what melting point value has been reported for COc1nc(OC)c(C(C)C)c(C(C#N)c2cc(C)cc(Br)c2)n1 (centres undefined) ?
123 to 124 °C

I am curious: what melting point value has been reported for `Nc1c(NCCCOc2cccc(CO)c2)c(=O)c1=O` ?
207 to 212 °C

I am curious: what melting point value has been reported for `CCOC(=O)c1cn(C2CC2)c2c(C)c(F)c(F)c([N+](=O)[O-])c2c1=O` ?
260 to 263 °C

I am curious: what melting point value has been reported for `CC1(C)OC(=O)Nc2c(Br)cc(-c3ccc(F)c(C#N)c3)cc21` ?
235 to 236 °C

I am curious: what melting point value has been reported for `COC(=O)[C@@H]1CSCN1C(=O)/C=C\Sc1ccccc1` ?
126 to 128 °C

I am curious: what melting point value has been reported for `CCOC(=O)c1sc(-n2ccc(OCC3CC3)cc2=O)nc1C` ?
180 to 183 °C

I am curious: what melting point value has been reported for CC(Oc1ccc(C2CCOCC2)cc1)C(=O)O (centres undefined) ?
156 °C

I am curious: what melting point value has been reported for `Cc1nn(C)c(=O)c(-n2nc(-c3ccc(C(F)(F)F)cc3)cc2C)c1O` ?
191 to 194 °C

I am curious: what melting point value has been reported for `Nc1ncc2cc(-c3ccccn3)c(N)nc2n1` ?
312 to 321 °C

* * *

endpointName: melting point

Before answering, review these 5 worked examples.
>  <compound>
Cc1c(NC(=O)c2cccnc2NCc2ccc(=O)[nH]c2)cccc1C(F)(F)F

>  <melting point>
196 to 201 °C

$$$$
>  <compound>
COc1c(-c2ccc(O)c(O)c2)oc2cc(O)ccc2c1=O

>  <melting point>
281 °C

$$$$
>  <compound>
O=c1ccc2c3ccccc3[nH]c2n1-c1ccccc1

>  <melting point>
308 to 309 °C

$$$$
>  <compound>
Cc1cccc2c1C(=O)N(C)Cc1c(-c3noc(C4CC4)n3)ncn1-2

>  <melting point>
200 °C

$$$$
>  <compound>
OCC1(c2ccc(Cl)cc2)CC1c1ccc(-c2ccccc2)cc1 (stereo not drawn)

>  <melting point>
168 to 170 °C

$$$$

I am curious: what melting point value has been reported for `COC(=O)c1cc(C(=O)c2c(C)c(-c3cccc(OCC(=O)OC(C)(C)C)c3)c3ccccn23)ccc1N` ?
81 °C

I am curious: what melting point value has been reported for `COCCn1nc2c(N)nc3ccccc3c2c1CC1CCOCC1` ?
189 to 190 °C

I am curious: what melting point value has been reported for `CN(C)CCCn1c(-c2ccccc2)cc2cc(O)ccc21` ?
130 °C

I am curious: what melting point value has been reported for `N#Cc1cnc2c(c1Nc1ccc(Cl)cc1Br)C=C1N=CN=C1C2` ?
244 to 246 °C

I am curious: what melting point value has been reported for O=C(O)Cc1ccc(OCCNC(=O)C2Cc3ccccc3N2S(=O)(=O)c2ccc(-c3cc(C(F)(F)F)ccc3Cl)cc2)c(Cl)c1 (stereo not drawn) ?
108 to 112 °C

I am curious: what melting point value has been reported for `CNC(=S)Nc1ccccc1-c1ccccc1` ?
152 to 153 °C

Data origin: a melting point compilation (Tetko et al.; mined from patent text by program, amines drawn as free bases though some values may be those of a salt)
